# tested_on: Serine/threonine-protein kinase Sgk1 (Homo sapiens) (UniProt O00141)
# Sequence (whole entry): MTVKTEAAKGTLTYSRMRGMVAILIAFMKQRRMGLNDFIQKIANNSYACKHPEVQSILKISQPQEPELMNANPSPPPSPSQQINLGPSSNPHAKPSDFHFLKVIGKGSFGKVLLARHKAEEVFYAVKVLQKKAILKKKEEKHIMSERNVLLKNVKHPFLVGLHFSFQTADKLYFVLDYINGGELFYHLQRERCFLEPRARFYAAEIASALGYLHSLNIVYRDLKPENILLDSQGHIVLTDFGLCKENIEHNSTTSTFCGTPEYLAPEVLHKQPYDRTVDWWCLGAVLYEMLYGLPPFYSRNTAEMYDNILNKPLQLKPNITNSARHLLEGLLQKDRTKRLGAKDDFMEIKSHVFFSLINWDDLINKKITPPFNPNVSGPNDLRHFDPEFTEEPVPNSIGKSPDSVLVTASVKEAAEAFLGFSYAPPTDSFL
# settings: at 0.1 µM
# Description: GSK_PKIS: SGK1 mean inhibition at 0.1 uM [Nanosyn]
The entries below are paired with their reported inhibition.
Give just the number in %; leave the unit off.

- molecule_smiles: "Cc1ccc2c(-c3ccnc(Nc4ccccc4)n3)c(-c3ccc(F)cc3)nn2n1"
  inhibition / %: 2.01

# input for lookup
Tested on Serine/threonine-protein kinase Sgk1 (Homo sapiens) (UniProt O00141): `CCCN1CCC(c2ccc(Nc3nc(Nc4cc(F)ccc4C(N)=O)c4cc[nH]c4n3)c(OC)c2)CC1` . Observed inhibition: 3.17

* * *

The entries below are paired with their reported inhibition.
# tested_on: Activated CDC42 kinase 1 (Homo sapiens) (UniProt Q07912)
# Sequence (Q07912 whole entry, looked up): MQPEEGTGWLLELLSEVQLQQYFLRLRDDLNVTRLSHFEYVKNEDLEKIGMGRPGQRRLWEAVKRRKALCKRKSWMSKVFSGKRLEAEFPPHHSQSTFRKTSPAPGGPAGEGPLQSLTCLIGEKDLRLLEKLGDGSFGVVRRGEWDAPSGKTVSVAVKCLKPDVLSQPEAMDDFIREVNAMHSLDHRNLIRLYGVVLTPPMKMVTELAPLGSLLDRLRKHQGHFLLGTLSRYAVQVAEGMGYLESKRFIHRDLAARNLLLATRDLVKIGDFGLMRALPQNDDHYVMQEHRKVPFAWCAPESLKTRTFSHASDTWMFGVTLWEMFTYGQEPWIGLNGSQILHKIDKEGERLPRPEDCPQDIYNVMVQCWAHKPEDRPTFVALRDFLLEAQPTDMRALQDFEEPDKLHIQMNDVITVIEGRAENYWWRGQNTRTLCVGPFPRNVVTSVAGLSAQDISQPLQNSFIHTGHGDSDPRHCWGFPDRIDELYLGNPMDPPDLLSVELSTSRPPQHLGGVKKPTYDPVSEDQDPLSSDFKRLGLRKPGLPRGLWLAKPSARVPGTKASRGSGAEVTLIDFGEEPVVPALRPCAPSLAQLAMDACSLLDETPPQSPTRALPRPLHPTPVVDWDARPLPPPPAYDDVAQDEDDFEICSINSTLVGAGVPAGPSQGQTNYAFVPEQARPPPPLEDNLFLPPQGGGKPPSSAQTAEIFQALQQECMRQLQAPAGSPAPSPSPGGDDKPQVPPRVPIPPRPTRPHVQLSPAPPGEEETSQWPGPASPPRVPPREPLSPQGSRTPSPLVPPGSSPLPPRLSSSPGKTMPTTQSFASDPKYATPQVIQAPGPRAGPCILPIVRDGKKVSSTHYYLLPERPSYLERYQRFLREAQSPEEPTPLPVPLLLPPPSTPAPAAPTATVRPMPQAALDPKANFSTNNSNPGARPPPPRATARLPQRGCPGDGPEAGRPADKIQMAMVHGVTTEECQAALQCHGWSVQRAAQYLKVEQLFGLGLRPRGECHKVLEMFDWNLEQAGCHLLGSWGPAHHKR
# settings: at 1 µM
# Description: GSK_PKIS: TNK2 mean inhibition at 1 uM [Nanosyn]
Could you give the number and then its unit, please?

Examples with their reported inhibition follow.
- molecule_smiles: "CC(C)(CO)CNC(=O)c1ccc2c(c1)/C(=N/Nc1ccc(S(N)(=O)=O)cc1)C(=O)N2"
  result_value: "0.03%"
- molecule_smiles: "CNC(=O)c1cc(-c2ccc(F)cc2)cc(-c2ccc(S(=O)(=O)N3CCCC3)cc2)c1N"
  result_value: "1.54%"
- molecule_smiles: "FC(F)(F)c1cccc(-c2nn3ncccc3c2-c2ccnc(Nc3ccc4c(c3)OCCO4)n2)c1"
  result_value: "0.47%"
- molecule_smiles: "N#Cc1c(NC(=O)c2ccc(F)cc2)sc2c1CCCC2"
  result_value: "0.89%"
- molecule_smiles: "CCn1cc(-c2ccnc3[nH]ccc23)c(-c2cccc(NC(=O)Nc3ccc(OCc4ccccc4)cc3)c2)n1"
  result_value: "2.63%"
- molecule_smiles: "CNC(=O)c1cncc(/C=C/c2ccccc2Cl)c1"
  result_value: "5.7%"
- molecule_smiles: "Nc1nc(-c2ccc(F)cc2)c(-c2ccc3ncccc3n2)s1"
  result_value: "3.57%"
- molecule_smiles: "CCOc1ccc2c(-c3ccnc(Nc4cccc(C(F)(F)F)c4)n3)cnn2n1"
  result_value: "0.5%"
- molecule_smiles: "COc1ccc2c(-c3ccnc(Nc4cccc(OC(F)(F)F)c4)n3)cnn2n1"
  result_value: "3.83%"
- molecule_smiles: "O=S(=O)(CCNCc1ccc(-c2ccc3ncnc(Nc4ccc(OCc5cccc(F)c5)c(Cl)c4)c3c2)o1)c1ccccc1"
  result_value: "1.4%"

Documented inhibition of `c1ccc(COc2ccc(Nc3ncnc4ccc(-c5ccco5)cc34)cc2)cc1` : 0.03%

Documented inhibition of `COc1cc(/C=N/Nc2ncnc3[nH]ncc23)ccc1O` : 8.52%

Documented inhibition of `CN(C)CCOc1ccc(-c2nc(-c3ccncc3)c(-c3ccc4c(c3)CC/C4=N\O)[nH]2)cc1` : 2.51%

Documented inhibition of `COc1cc(N2CCN(C(C)C)CC2)ccc1Nc1nc(Nc2ccc(F)cc2C(N)=O)c2cc[nH]c2n1` : 61.7%
